Each entry below carries its reported viability at 28.5 h, 10 µM.
experiment: in vitro; settings: human, hela cells, % viability
valueType: viability at 28.5 h, 10 µM (%)

> print(dat)
                                 itemsmiles  resultnumber
1   Cc1ccc(CSCCNS(=O)(=O)c2ccc3ccccc3c2)cc1           107
2  CCc1nn(CC(=O)NC2CC2)c(=O)c2cc3sc(C)cc3n12          91.9
3  C[C@H](c1ccccc1)N1C(=O)[C@@H]2CN(C(=O)CC(C)(C)C)CCN2C1=O          89.5
4  COc1cc(/C=N/NC(=O)CCNc2n[nH]c(=O)[nH]c2=O)cc(Br)c1O          88.3
5  COC(=O)c1ccc(C)c(NS(=O)(=O)c2cc(Cl)ccc2Cl)c1          90.9

---

test: in vitro; conditions: human, hela cells, % viability
valueType: viability at 28.5 h, 10 µM (%)

> print(dat)
                                   compound  unitspec  resultnumber
1  CN(C)CCN(Cc1ccccc1)Cc1ccc([N+](=O)[O-])cc1         %          87.8
2  CN1CCC(N2CCN(C(=O)NCC3COc4ccccc4O3)CC2)CC1 (stereo not drawn)         %           107
3  Cn1c(SCC(=O)N2CCN(Cc3ccccc3)CC2)nnc1-c1cccc([N+](=O)[O-])c1         %          90.6
4  CC(NC(=O)c1cc(-c2ccccc2)nc2ccccc12)c1cccc(S(N)(=O)=O)c1 (stereo not drawn)         %          79.5
5  O=C1Nc2ccc(C(=O)NCC(O)CO)cc2/C1=C/c1c[nH]c2ncccc12 (stereo not drawn) [CBK115363C]         %          95.3
6  O=C(c1ccco1)N1CCN(S(=O)(=O)c2ccc(Cl)cc2)CC1         %           104
7  Cc1onc(-c2ccccc2)c1C(=O)NCCNC(=O)c1c(-c2ccccc2)noc1C         %           106
8           Cc1ccccc1OCCCn1cncc1-c1cnn(C)c1         %          91.1
9   CN(CC(N)=O)C(=O)CCn1c(=O)oc2cc(Cl)ccc21         %          94.9

---

Examples of compounds with documented viability at 28.5 h, 10 µM follow.
assay: in vitro; settings: human, hela cells, % viability
valueType: viability at 28.5 h, 10 µM (%)

> print(dat)
                                   compound  resultnumber
1  Cc1cn(CC(=O)N2CCCC3(CCN(C(=O)c4cc(F)c(F)cc4F)C3)C2)c(=O)[nH]c1=O (stereo not drawn) [CBK131561]           101
2  CCn1nccc1N1CCCC(NC(=O)CCc2ccccc2Cl)C1=O (stereo not drawn) [CBK305455]           113
3  FC(F)(F)c1ccnc(OCCN2CCNCC2)c1 [CBK113459]          97.4
4  Cc1cc(C)n(CC(O)CN(c2ccccc2)S(=O)(=O)c2ccccc2)n1 (stereo not drawn) [CBK264469]           118
5  COc1ccc(Cl)cc1NC(=O)CCN1CCN(C)CC1 [CBK278177C]            91
6  O=c1[nH]ccn1CCNc1ccc(-c2cccc(Cl)c2Cl)cn1 [CBK037745]          93.1
7  Cc1cnc2n(c1=O)C(CC(=O)NCc1ccncc1)CS2 (stereo not drawn) [CBK287671]           111
8  COc1ccccc1-n1nc(-c2ccncc2)nc1C(C)NS(C)(=O)=O (stereo not drawn) [CBK306868]            98
9  O=C(Nc1cc(-c2nc3ncccc3o2)ccc1Cl)c1ccc(-c2ccccc2[N+](=O)[O-])o1 [CBK264097]            89
